- MEASURED ON: HLA-A*02:01 (Homo sapiens, UniProt P04439, D140Y/D185E/D98H/E176V/E277Q/G131W/G231S/I119V/I121R/I166T/I218V/L300P/L318F/N151K/N90K/P208A/P217A/Q86G/Q94H/R138H/R169H/T345S)
- MEASUREMENT NOTES: MHC binding assay: UV-ligand exchange with beta2m ELISA (peptide exchange yield)
- APPLIED CONDITIONS: binding to HLA-A*02:01
RESULT TYPE: Peptide exchange (MHC class I binding score, peptide exchange yield)

In the examples that follow, each entry is paired with its recorded Peptide exchange (MHC class I binding score, peptide exchange yield).
substance="142 (FLFATPVFI; listed as Homo sapiens) [compound 142]" reported="“+++” (≥50 = +++)"
substance="140 (YMDAPKAAL; listed as Homo sapiens) [compound 140]" reported="“++” (≥20% = ++)"
substance="286 (YLFPGIPEL; listed as Homo sapiens) [compound 286]" reported="“+++” (≥50 = +++)"
substance="135 (ALSEVDFQL; listed as Homo sapiens) [compound 135]" reported="“+++” (≥50 = +++)"
substance="192 (KMLDGASFTL; listed as Homo sapiens) [compound 192]" reported="“+++” (≥50 = +++)"
substance="452 (ILLEHGADPNL; listed as Homo sapiens) [compound 452]" reported="“+++” (≥50 = +++)"
substance="308 (SQYSGQLHEV; listed as Homo sapiens) [compound 308]" reported="“+++” (≥50 = +++)"
substance="500 (SLMEDQVLQL; listed as Homo sapiens) [compound 500]" reported="“+++” (≥50 = +++)"

Then there is this substance:
QUERY: Please look at this substance and report its Peptide exchange (MHC class I binding score, peptide exchange yield): 68 (SLMELPRGLFL; listed as Homo sapiens) [compound 68]
RESULT: “++++” (≥75% = ++++)
